Source: PubChem BioAssay (NCATS)

system: CP286; assay: qHTS profiling for inhibitors of Plasmodium falciparum proliferation (AID 504749); also: nearly all actives have a fitted effect of over 60% in size; conditions: P. falciparum in erythrocytes, SYBR Green DNA, 72 h; series mostly up to 28.7 µM
Records with an inconclusive call do not appear. Calls of active or inactive are those of the source. Calls follow the shape of the dose curve; as a rule, active = well fitted inhibition curve with a large enough effect; inconclusive = small, poorly fitted or top-dose-only effect; inactive = flat fitted curve, though single readings scatter.
# output must be one of t = active, f = inactive

C[C@H](N)C(=O)N[C@@H](C)P(=O)(O)O :: f
CCN(CC)CCOc1ccc2nc(N(C)C)sc2c1 :: f

Query :: Just curious, what result did `CC(C)(C)CC(C)(C)c1cc(Cc2cc(C(C)(C)CC(C)(C)C)cc(-n3nc4ccccc4n3)c2O)c(O)c(-n2nc3ccccc3n2)c1` get here?
Result :: f

----------
test system: N140; assay: qHTS profiling for inhibitors of Plasmodium falciparum proliferation (AID 504749); also: nearly all actives have a fitted effect of over 60% in size; settings: P. falciparum in erythrocytes, SYBR Green DNA, 72 h; series mostly up to 28.7 µM
Inconclusive results are not listed. Activity calls are given as the source filed them. Calls follow the shape of the dose curve; as a rule, active = well fitted inhibition curve with a large enough effect; inconclusive = small, poorly fitted or top-dose-only effect; inactive = flat fitted curve, though single readings scatter.
# output must be one of True = active, False = inactive

CCN(CC)CCOC(=O)c1cccnc1 :: False
CC(=O)NCCCS(=O)(=O)O :: False
CC(C)[C@H](N)C(=O)OCC(CO)OCn1cnc2c(=O)[nH]c(N)nc21 (some centres undefined) :: False
O=S(=O)(O)CCCS(=O)(=O)O :: False
O=C1N=C2SCCN2C(=O)C1Cc1ccc(Cl)cc1 (centres undefined) :: False
CNC(=O)c1c(I)c(C(=O)NCC(=O)Nc2c(I)c(C(=O)O)c(I)c(C(=O)NCCO)c2I)c(I)c(N(C)C(C)=O)c1I :: False

Query :: Just curious, what result did `CC/C=C\C/C=C\C/C=C\C/C=C\C/C=C\C/C=C\CCC(=O)O` get here?
Result :: False

Query :: Just curious, what result did `O=C(NNCNNC(=O)c1ccncc1)c1ccncc1` get here?
Result :: False

Query :: Just curious, what result did `CCCOC(=O)c1ccccc1O` get here?
Result :: False

Query :: Just curious, what result did `CCOC(=O)Cc1ccc(-c2ccccc2)cc1` get here?
Result :: True

Query :: Just curious, what result did `Nc1ncnc2c1ncn2[C@H]1CC[C@@H](CO)O1` get here?
Result :: False

----------
system: PC26; assay: qHTS profiling for inhibitors of Plasmodium falciparum proliferation (AID 504749); also: nearly all actives have a fitted effect of over 60% in size; conditions: P. falciparum in erythrocytes, SYBR Green DNA, 72 h; series mostly up to 28.7 µM
Results filed as inconclusive are left out. Active and inactive are the calls of the source. The call rests on the fitted dose curve; in most records, active means well fitted inhibition curve with a large enough effect; inconclusive means small, poorly fitted or top-dose-only effect; inactive means flat fitted curve, though single readings scatter.
# output must be one of yes = active, no = inactive

Some solved entries appear below for comparison.
CC(C)(C)CC(C)(C)c1ccc(OCCO)cc1 :: no
CC1C(=O)CC2C3(C)CCC2(C(C)C(=O)O)C(=O)C13 (stereo not drawn) :: no

Query :: Just curious, what result did CCN(CC)CCCC(C)Nc1cc(/C=C/c2ccccc2Cl)nc2cc(Cl)ccc12 (stereo not drawn) get here?
Result :: yes

Query :: Just curious, what result did `CN(C)CCCSc1ccccc1NC(=O)/C=C/c1ccccc1` get here?
Result :: no

Query :: Just curious, what result did `CCOC(C)OCC` get here?
Result :: no

Query :: Just curious, what result did `O=C1c2ccccc2CN2C(=O)c3ccccc3CN12` get here?
Result :: no

----------
system: CP252; test: qHTS profiling for inhibitors of Plasmodium falciparum proliferation (AID 504749); also: nearly all actives have a fitted effect of over 60% in size; settings: P. falciparum in erythrocytes, SYBR Green DNA, 72 h; series mostly up to 28.7 µM
Results filed as inconclusive are left out. The source made the active and inactive calls. The call rests on the fitted dose curve; in most records, active means well fitted inhibition curve with a large enough effect; inconclusive means small, poorly fitted or top-dose-only effect; inactive means flat fitted curve, though single readings scatter.
# output must be one of active, inactive

O=C1CCC(c2ccccc2)(C2CCN(Cc3ccccc3)CC2)C(=O)N1 (stereo not drawn) :: inactive
Cc1cc(=O)c(C(=O)N[C@@H](C(=O)N[C@@H]2C(=O)N3C(C(=O)O)=C(CSc4nnnn4C)CS[C@H]23)c2ccc(O)cc2)c[nH]1 :: inactive
CCCCC :: inactive
CN(C)CCOc1ccc(/C(=C(/CCCl)c2ccccc2)c2ccccc2)cc1 :: inactive
Oc1cc(O)cc(O)c1 :: inactive

Query :: Just curious, what result did `C[C@@](Cc1ccc(O)c(O)c1)(NN)C(=O)O` get here?
Result :: inactive

Query :: Just curious, what result did `OCC(O)CO` get here?
Result :: inactive
